Where do the numbers come from? From PubChem BioAssay (Tox21).

assay: qHTS RealTime-Glo MT Cell Viability Assay in HepG2 cells - 16 hour (AID 1224885); conditions: RealTime-Glo luminescence; series mostly up to 76.8 µM; also: nearly all actives have a fitted effect of over 50% in size
Records with an inconclusive call do not appear. Activity calls are given as the source filed them. Calls follow the shape of the dose curve; as a rule, active = well fitted cell-killing curve with a large enough effect in the repeat runs; inconclusive = weak or mixed curves; inactive = flat fitted curve, though single readings scatter.
Output constraint: value belongs to active, inactive

Solved entries:
compound: ClCc1ccccc1CCl
answerLabel: inactive
//
compound: O=C/C(Cl)=C(/Cl)C(=O)O
answerLabel: inactive
//
compound: BrCC(Br)c1ccccc1 (stereo not drawn)
answerLabel: inactive
//
compound: CCCN(CCC)CCc1c[nH]c2ccccc12
answerLabel: inactive
//
compound: CC(=O)c1ccc(-c2ccccc2)cc1
answerLabel: inactive
//
compound: Nc1ccc(Sc2ccc(N)cc2)cc1
answerLabel: inactive
//
compound: CN(C)CCc1c[nH]c2cccc(O)c12
answerLabel: inactive
//
compound: O=[N+]([O-])c1ccc2ccc3cccc4ccc1c2c34
answerLabel: inactive

Enquiry: I'd appreciate the recorded outcome for Oc1ccc2ccc3cccc4ccc1c2c34 from this test.
Return: active

Enquiry: Could you kindly confirm the outcome this assay logged for CC(=O)/C=C/c1ccc2c(c1)OCO2 ?
Return: inactive
